assay: NCI Yeast Anticancer Drug Screen. Data for the sgs1 mgt1 strain (AID 161); conditions: S. cerevisiae sgs1 mgt1 strain, at 50.0 µM (retest, dose inferred, filed as 5.0)
The panel holds about 79,000 compounds, 15% with a hit somewhere; the sample as a whole holds those more often. Calls of active or inactive are those of the source. No stated cut-off is given here; in the data, active means growth inhibition above about 70%; inactive means the rest.
Respond with a class label; see active, inactive

Some entries whose results are on file:
>  <Compound>
Fc1ccc(CSC(=S)Nc2cccc(C(F)(F)F)c2)cc1

>  <Classification>
active

$$$$
>  <Compound>
CC1(C)OC2COC3(CNO)OC(C)(C)OC3C2O1 (stereo unspecified)

>  <Classification>
inactive

$$$$
>  <Compound>
CCN1C(/C=C/c2ccc(O)c3ncccc23)CCC2CC(C)CCC21 (stereo unspecified)

>  <Classification>
active

$$$$

**Query** Assay result, entry O=CC(O)C(O)C(O)C(O)C(=O)NCCCCCCCCCCCCNC(=O)C(O)C(O)C(O)C(O)C=O (stereo unspecified) — outcome?
**Result** inactive

**Query** Could you kindly confirm the outcome this assay logged for `CCC(CC)N(CCNc1cc(OC)cc2cccnc12)CC(C)C` ?
**Result** inactive

**Query** Identify the outcome logged in this assay for the compound shown: `c1ccc(CN(CCCOc2ccccc2)Cc2ccccc2)cc1`
**Result** active

**Query** Give the logged outcome of this assay for the following compound: `COC(=O)CCC(=O)c1ccc2c(c1)CC1(Cc3ccccc3C1)C2`
**Result** inactive

**Query** Returns: the outcome recorded for `COC1=C2C[C@@H](C)C[C@@H](OC)[C@@H](O)[C@H](C)/C=C(\C)[C@@H](OC(N)=O)[C@H](OC)/C=C\C=C(/C)C(=O)NC(=CC1=O)C2=O` in this assay.
**Result** active

**Query** Recorded test outcome, item `O=[N+]([O-])c1ccc2nc(-c3ccccn3)[nH]c2c1`
**Result** inactive

**Query** Can you look up the reported call for `O=C(O)CCC(=O)NCCNC(=O)CC(=O)O` for me?
**Result** inactive

**Query** Please indicate how the test categorized `CCN(CC)CCCCCCNc1cc(Cl)cc2cccnc12` .
**Result** active

**Query** # fetch the recorded call for O=C(CC(c1cccnc1)C(C(=O)c1ccc(Cl)cc1)C(CC(=O)c1ccc(Cl)cc1)c1cccnc1)c1ccc(Cl)cc1 (stereo unspecified) here
**Result** active

----------
test: NCI Yeast Anticancer Drug Screen. Data for the rad50 strain (AID 155); details: S. cerevisiae rad50 strain growth inhibition; at 5.0 µM (retest, dose inferred, filed as 0.5)
This is part of a sample that, as a whole, favours compounds with a hit. Of some 79,000 tested, about 15% had one in any assay. Activity calls are given as the source filed them. No stated cut-off is given here; in the data, active means growth inhibition above about 70%; inactive means the rest.
Parameter call: string, one of Y = active, N = inactive

**Query** Please let me know the test result on file for `C=C(C)CCC(=C)C` .
**Result** N

**Query** Check the results log: what was the call for `CC(C)c1ccc(C(=O)C2CC2)cc1` ?
**Result** N

**Query** Fill in: this test's call for `CCOC(=O)c1c[nH]cc1-c1cn(S(=O)(=O)c2ccccc2)cc1C` is ___
**Result** N

**Query** Would you mind telling me which call this test gave `COC(=O)CSC(=S)Nc1ccc(Cl)cc1` ?
**Result** N

**Query** Fill in: this test's call for CCCCCCCCCc1ccc(OCC(O)CO)cc1 (stereo not drawn) is ___
**Result** N

**Query** Field: outcome | Entry: `CCCOC(=O)COc1ccccc1C(=O)OCCC`
**Result** N

**Query** Hi, do you know how `OCCN(CCO)c1cc(/C=C/c2ccnc3ccccc23)nc2ccccc12` came out in this test?
**Result** N

**Query** What call does the record list for Fc1ccc(C2SCc3nc4ccccc4n32)cc1Cl (stereo not drawn) ?
**Result** N

**Query** Would you mind telling me which call this test gave `O=Cc1cc2ccccc2cc1C=O` ?
**Result** Y

**Query** Please state the recorded outcome for this compound: `CCc1ccccc1NC1=C(Cl)C(=O)c2ccccc2C1=O`
**Result** Y

**Query** State the result this test recorded for `Cc1c(NC(=O)CCl)c(=O)oc2c(C)c3occc(=O)c3cc12` .
**Result** N

**Query** Call for entry `O=C1C=CC(=O)N1c1ccc(Cl)cc1` :
**Result** Y

**Query** Per the records of this test, what outcome belongs to `[O-][n+]1c2ccccc2cc2c1c1ccccc1n2O` ?
**Result** N

**Query** How did this test come out for CC(C)(C)c1cc(C(c2cc3c(cc2O)OCO3)N2CCOCC2)cc(C(C)(C)C)c1O (stereo not drawn) ?
**Result** Y

**Query** Please state the recorded outcome for this compound: `CCCCCCC[n+]1ccc(C(=O)c2ccccc2)cc1`
**Result** Y

**Query** # lookup: test call for `O=[N+]([O-])/C=C/c1cc2ccccc2[nH]1`
**Result** N

**Query** How did this test come out for `N#Cc1cccc(C[P+](c2ccccc2)(c2ccccc2)c2ccccc2)c1` ?
**Result** N

**Query** Outcome? `CCOc1ccc(N=NS(=O)(=O)O)cc1`
**Result** N
